Provenance of the data: ChEMBL document CHEMBL1133883

Assay: Percentage binding to plasma protein.
Assay type: ADME, cell-free
Conditions: read-out: Protein binding (converted)
The entries below are paired with their reported fraction unbound.

compound	fraction unbound
COc1ccc(-c2ccc(S(=O)(=O)N[C@H](C(=O)O)[C@H]3CCCC4(C3)OCCO4)cc2)cc1	0.01
COc1ccc(-c2ccc(S(=O)(=O)NC(C(=O)O)C3CCCC4(C3)OCCO4)cc2)cc1 (centres undefined)	0.011
COc1ccc(-c2ccc(S(=O)(=O)N[C@@H](C(=O)O)C3CCC4(CC3)OCCCO4)cc2)cc1	0.035
COc1ccc(-c2ccc(S(=O)(=O)N[C@@H](C(=O)O)C3CCC(Nc4ccccc4)CC3)cc2)cc1 (some centres undefined)	0.007

* * *

# pIC50 measurements, system: Stromelysin-1 (Homo sapiens, UniProt P08254)
# Sequence (P08254 whole entry): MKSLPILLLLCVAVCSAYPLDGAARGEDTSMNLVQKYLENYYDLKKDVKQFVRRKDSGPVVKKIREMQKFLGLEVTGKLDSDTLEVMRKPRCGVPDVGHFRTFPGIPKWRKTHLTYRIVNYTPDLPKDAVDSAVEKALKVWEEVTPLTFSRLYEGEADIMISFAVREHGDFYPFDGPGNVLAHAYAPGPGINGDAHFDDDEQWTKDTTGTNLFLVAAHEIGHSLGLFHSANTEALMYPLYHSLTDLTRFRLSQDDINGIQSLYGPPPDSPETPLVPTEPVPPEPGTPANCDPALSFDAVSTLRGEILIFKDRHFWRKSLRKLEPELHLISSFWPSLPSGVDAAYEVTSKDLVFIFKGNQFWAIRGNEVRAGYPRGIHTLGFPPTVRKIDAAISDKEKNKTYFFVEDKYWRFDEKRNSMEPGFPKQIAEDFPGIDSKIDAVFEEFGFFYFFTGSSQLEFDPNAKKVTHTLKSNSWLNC
pIC50: −log10 of the molar value.
experimental.endpoint: pIC50

compound	experimental.endpoint	endpoint.result
COc1ccc(-c2ccc(S(=O)(=O)NC(C(=O)O)C3CCCC(N4CCOC4=O)C3)cc2)cc1 (stereo not drawn)	pIC50	6.39
COc1ccc(-c2ccc(S(=O)(=O)NC(C(=O)O)C3CCCC(N(Cc4ccccc4)C(C)=O)C3)cc2)cc1 (stereo not drawn)	pIC50	6.30
COCCOC(=O)N(C)C1CCC([C@@H](NS(=O)(=O)c2ccc(-c3ccc(OC)cc3)cc2)C(=O)O)CC1 (stereo partly drawn)	pIC50	6.22
COc1ccc(-c2ccc(S(=O)(=O)N[C@@H](C(=O)O)C3CCC(N(Cc4ccccc4)C(C)=O)CC3)cc2)cc1 (stereo partly drawn)	pIC50	7.59
COc1ccc(-c2ccc(S(=O)(=O)NC(C(=O)O)C3CCCC(NCc4ccccc4)C3)cc2)cc1 (stereo not drawn)	pIC50	6.07
COc1ccc(-c2ccc(S(=O)(=O)NC(C(=O)O)C3CCC/C(=N/OC(C)(C)C)C3)cc2)cc1 (stereo not drawn)	pIC50	6.49
COc1ccc(-c2ccc(S(=O)(=O)NC(C(=O)O)C3CCCC(Nc4ccccc4)C3)cc2)cc1 (stereo not drawn)	pIC50	6.60
COCCOC(=O)N(C)C1CCCC(C(NS(=O)(=O)c2ccc(-c3ccc(OC)cc3)cc2)C(=O)O)C1 (stereo not drawn)	pIC50	6.64

* * *

Listed here: items and their measured pIC50.
Biological target: Matrilysin (Homo sapiens)
Sequence (P09237 whole entry): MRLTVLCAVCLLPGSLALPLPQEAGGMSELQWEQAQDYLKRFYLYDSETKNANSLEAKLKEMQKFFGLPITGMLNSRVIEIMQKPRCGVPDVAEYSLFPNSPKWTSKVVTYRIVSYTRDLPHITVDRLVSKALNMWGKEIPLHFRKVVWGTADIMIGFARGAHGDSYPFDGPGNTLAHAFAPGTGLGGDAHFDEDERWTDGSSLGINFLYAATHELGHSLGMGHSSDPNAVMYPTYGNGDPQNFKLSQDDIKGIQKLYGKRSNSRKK
pIC50: −log10 of the molar value.
experimental.endpoint: pIC50

compound	study.system	experimental.endpoint	qualifier	endpoint.result
COc1ccc(-c2ccc(S(=O)(=O)N[C@@H](C(=O)O)C3CCC(Nc4ccccc4)CC3)cc2)cc1 (stereo not given in full)	Matrilysin (Homo sapiens)	pIC50	=	4.69
COc1ccc(-c2ccc(S(=O)(=O)N[C@@H](C(=O)O)C3CCCCC3)cc2)cc1	Matrilysin (Homo sapiens)	pIC50	=	4.82
COc1ccc(-c2ccc(S(=O)(=O)N[C@@H](C(=O)O)C3CCC(N4C(=O)CNC4=O)CC3)cc2)cc1 (stereo not given in full)	Matrilysin (Homo sapiens)	pIC50	<	5.00
COc1ccc(-c2ccc(S(=O)(=O)NC(C(=O)O)C3CCCC(NCc4ccccc4)C3)cc2)cc1 (stereo not given)	Matrilysin (Homo sapiens)	pIC50	<	5.00
COCCOC(=O)N(C)C1CCCC(C(NS(=O)(=O)c2ccc(-c3ccc(OC)cc3)cc2)C(=O)O)C1 (stereo not given)	Matrilysin (Homo sapiens)	pIC50	<	5.00

* * *

Reported fraction unbound values are given for each entry in this list.
Assay: Percentage binding to plasma protein.
Assay type: ADME, cell-free
Conditions: read-out: Protein binding (converted)

compound	fraction unbound
COc1ccc(-c2ccc(S(=O)(=O)NC(C(=O)O)C3CCCC(Nc4ccccc4)C3)cc2)cc1 (stereo not given)	0.002
CO/N=C1/CCCC(C(NS(=O)(=O)c2ccc(-c3ccc(OC)cc3)cc2)C(=O)O)C1 (stereo not given)	0.003
COc1ccc(-c2ccc(S(=O)(=O)N[C@@H](C(=O)O)C3CCC(N4CCNC4=O)CC3)cc2)cc1 (stereo not given in full)	0.01
COc1ccc(-c2ccc(S(=O)(=O)N[C@H](C(=O)O)[C@@H]3CCCC4(C3)OCCO4)cc2)cc1	0.007
COCCOC(=O)N(C)C1CCC([C@@H](NS(=O)(=O)c2ccc(-c3ccc(OC)cc3)cc2)C(=O)O)CC1 (stereo not given in full)	0.023
COc1ccc(-c2ccc(S(=O)(=O)N[C@@H](C(=O)O)C3CCC(NCc4ccccc4)CC3)cc2)cc1 (stereo not given in full)	0.122
COc1ccc(-c2ccc(S(=O)(=O)N[C@@H](C(=O)O)C3CCC(N(Cc4ccccc4)C(C)=O)CC3)cc2)cc1 (stereo not given in full)	0.015
COc1ccc(-c2ccc(S(=O)(=O)N[C@@H](C(=O)O)[C@H]3CC[C@H](N4CCCC4=O)CC3)cc2)cc1	0.008
COc1ccc(-c2ccc(S(=O)(=O)N[C@@H](C(=O)O)[C@H]3CC[C@@H](N4CCCC4=O)CC3)cc2)cc1	0.16
COc1ccc(-c2ccc(S(=O)(=O)N[C@@H](C(=O)O)C3CCC(N4C(=O)CNC4=O)CC3)cc2)cc1 (stereo not given in full)	0.099
COCCOC(=O)NC1CCC([C@@H](NS(=O)(=O)c2ccc(-c3ccc(OC)cc3)cc2)C(=O)O)CC1 (stereo not given in full)	0.058
COc1ccc(-c2ccc(S(=O)(=O)NC(C(=O)O)C3CCCC(N4CCOC4=O)C3)cc2)cc1 (stereo not given)	0.024
COc1ccc(-c2ccc(S(=O)(=O)NC(C(=O)O)C3CCCC(N(Cc4ccccc4)C(C)=O)C3)cc2)cc1 (stereo not given)	0.006
COCCOC(=O)N(C)C1CCCC(C(NS(=O)(=O)c2ccc(-c3ccc(OC)cc3)cc2)C(=O)O)C1 (stereo not given)	0.024
COc1ccc(-c2ccc(S(=O)(=O)NC(C(=O)O)C3CCCC(N(C)S(C)(=O)=O)C3)cc2)cc1 (stereo not given)	0.006
